Biological target: human Oxytocin (OTR) receptor (Homo sapiens, UniProt P30559)
Construct: expressed in transfected cells
Sequence (P30559 1-389): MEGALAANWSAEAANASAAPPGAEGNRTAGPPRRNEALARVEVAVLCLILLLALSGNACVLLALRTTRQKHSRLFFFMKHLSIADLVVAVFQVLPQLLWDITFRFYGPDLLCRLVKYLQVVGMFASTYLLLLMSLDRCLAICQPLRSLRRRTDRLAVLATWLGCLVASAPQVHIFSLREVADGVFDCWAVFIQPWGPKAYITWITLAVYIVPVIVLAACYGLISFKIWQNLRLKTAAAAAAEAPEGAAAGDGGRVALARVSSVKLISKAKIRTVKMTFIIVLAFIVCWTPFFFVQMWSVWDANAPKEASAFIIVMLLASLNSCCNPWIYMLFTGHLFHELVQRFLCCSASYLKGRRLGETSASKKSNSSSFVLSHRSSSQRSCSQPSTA
Test: Calcium flux assay (FLIPR) in CHO cells expressing human OTR
Format: cell-based
Conditions: CHO; maximum response normalized to endogenous full agonist = 100%; read-out: hOT efficacy
Where a SMILES comes first, the peptide text is derived from it.
Reported Emax values for the following compounds.
measurementType: Emax (%)

1) CC[C@H](C)[C@H](NC(=O)CN(C)C(=O)[C@@H]1CCS(=O)(=O)CCC(=O)N[C@@H](Cc2ccc(O)cc2)C(=O)N[C@@H]([C@@H](C)CC)C(=O)N[C@@H](CCC(N)=O)C(=O)N[C@@H](CC(N)=O)C(=O)N1)C(=O)NCC(N)=O [Example 13] (HELM PEPTIDE1{Y.I.Q.N.[O=C([C@H](CCS(=O)(=O)CCC(=O)[*:3])N[*:1])[*:2]].[Sar].I.G.[am]}$PEPTIDE1,PEPTIDE1,1:R1-5:R3$$$V2.0; C-terminus assumed; bridges inferred)
117
2) CC[C@H](C)[C@@H]1NC(=O)[C@H](Cc2ccc(O)cc2)NC(=O)CCS(=O)(=O)CC[C@@H](C(=O)N(C)CC(=O)NC(C)(C)C(=O)NCC(N)=O)NC(=O)[C@H](CC(N)=O)NC(=O)[C@H](CCC(N)=O)NC1=O [Example 10] (HELM PEPTIDE1{Y.I.Q.N.[O=C([C@H](CCS(=O)(=O)CCC(=O)[*:3])N[*:1])[*:2]].[Sar].[Aib].G.[am]}$PEPTIDE1,PEPTIDE1,1:R1-5:R3$$$V2.0; C-terminus assumed; bridges inferred)
100

----------
target: human Oxytocin (OTR) receptor (Homo sapiens); assay: Calcium flux assay (FLIPR) in CHO cells expressing human OTR; settings: agonist mode, CHO cells, calcium flux FLIPR; read-out: hOT EC50
Where a SMILES comes first, the peptide text is derived from it.
Classify: fulfilled when EC50 is strictly less than 1 nM; not fulfilled when EC50 is not.

1. CC[C@H](C)[C@@H]1NC(=O)[C@H](Cc2ccc(O)cc2)NC(=O)CCS(=O)(=O)CC[C@@H](C(=O)N[C@@H](CO)C(=O)N[C@@H](CC(C)C)C(=O)NCC(N)=O)NC(=O)[C@H](CC(N)=O)NC(=O)[C@H](CCC(N)=O)NC1=O [Example 25] (HELM PEPTIDE1{Y.I.Q.N.[O=C([C@H](CCS(=O)(=O)CCC(=O)[*:3])N[*:1])[*:2]].S.L.G.[am]}$PEPTIDE1,PEPTIDE1,1:R1-5:R3$$$V2.0)
not fulfilled
2. CCC[C@H](NC(=O)CN(C)C(=O)[C@@H]1CCS(=O)(=O)CCC(=O)N[C@@H](Cc2ccc(O)cc2)C(=O)N[C@@H]([C@@H](C)CC)C(=O)N[C@@H](CCC(N)=O)C(=O)N[C@@H](CC(N)=O)C(=O)N1)C(=O)NCC(N)=O [Example 14] (HELM PEPTIDE1{Y.I.Q.N.[O=C([C@H](CCS(=O)(=O)CCC(=O)[*:3])N[*:1])[*:2]].[Sar].[Nva].G.[am]}$PEPTIDE1,PEPTIDE1,1:R1-5:R3$$$V2.0; C-terminus assumed; bridges inferred)
fulfilled
3. CCCC[C@H](NC(=O)[C@@H]1CCS(=O)(=O)CCC(=O)N[C@@H](Cc2ccc(O)cc2)C(=O)N[C@@H]([C@@H](C)CC)C(=O)N[C@@H](CCC(N)=O)C(=O)N[C@@H](CC(N)=O)C(=O)N1)C(=O)N[C@@H](CC(C)C)C(=O)NCC(N)=O [Example 24] (HELM PEPTIDE1{Y.I.Q.N.[O=C([C@H](CCS(=O)(=O)CCC(=O)[*:3])N[*:1])[*:2]].[Nle].L.G.[am]}$PEPTIDE1,PEPTIDE1,1:R1-5:R3$$$V2.0)
not fulfilled
4. CC[C@H](C)[C@@H]1NC(=O)[C@H](Cc2ccc(O)cc2)NC(=O)CCS(=O)(=O)CC[C@@H](C(=O)N(C)CC(=O)N[C@@H](C)C(=O)NCC(N)=O)NC(=O)[C@H](CC(N)=O)NC(=O)[C@H](CCC(N)=O)NC1=O [Example 19] (HELM PEPTIDE1{Y.I.Q.N.[O=C([C@H](CCS(=O)(=O)CCC(=O)[*:3])N[*:1])[*:2]].[Sar].A.G.[am]}$PEPTIDE1,PEPTIDE1,1:R1-5:R3$$$V2.0)
not fulfilled

----------
Target: human Oxytocin (OTR) receptor (Homo sapiens, UniProt P30559)
Construct: expressed in transfected cells
Sequence (P30559 1-389): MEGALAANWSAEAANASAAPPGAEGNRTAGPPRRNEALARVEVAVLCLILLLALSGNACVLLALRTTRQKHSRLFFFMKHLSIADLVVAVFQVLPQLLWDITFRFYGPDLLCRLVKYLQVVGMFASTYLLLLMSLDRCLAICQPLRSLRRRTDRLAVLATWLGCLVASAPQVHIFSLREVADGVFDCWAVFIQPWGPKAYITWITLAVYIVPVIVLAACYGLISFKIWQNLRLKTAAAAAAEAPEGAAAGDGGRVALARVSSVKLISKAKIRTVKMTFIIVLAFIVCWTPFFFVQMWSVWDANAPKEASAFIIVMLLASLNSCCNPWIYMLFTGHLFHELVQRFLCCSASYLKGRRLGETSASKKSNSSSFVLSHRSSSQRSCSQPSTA
Assay: Calcium flux assay (FLIPR) in CHO cells expressing human OTR
Assay type: cell-based
Settings: CHO; maximum response normalized to endogenous full agonist = 100%; read-out: hOT efficacy
Where a SMILES comes first, the peptide text is derived from it.
Reported Emax values for the following compounds.
measurementType: Emax (%)

1. CC[C@H](C)[C@@H]1NC(=O)[C@H](Cc2ccc(O)cc2)NC(=O)CCS(=O)(=O)CC[C@@H](C(=O)N(C)CC(=O)N[C@@H](CCC(C)C)C(=O)NCC(N)=O)NC(=O)[C@H](CC(N)=O)NC(=O)[C@H](CCC(N)=O)NC1=O [Example 15] (HELM PEPTIDE1{Y.I.Q.N.[O=C([C@H](CCS(=O)(=O)CCC(=O)[*:3])N[*:1])[*:2]].[Sar].[CC(C)CC[C@H](N[*:1])C(=O)[*:2]].G.[am]}$PEPTIDE1,PEPTIDE1,1:R1-5:R3$$$V2.0)
107
2. CC[C@H](C)[C@@H]1NC(=O)[C@H](Cc2ccc(O)cc2)NC(=O)CCS(=O)(=O)CC[C@@H](C(=O)N2C[C@@H](F)C[C@H]2C(=O)N[C@@H](CC(C)C)C(=O)NCC(N)=O)NC(=O)[C@H](CC(N)=O)NC(=O)[C@H](CCC(N)=O)NC1=O [Example 6] (HELM PEPTIDE1{Y.I.Q.N.[O=C([C@H](CCS(=O)(=O)CCC(=O)[*:3])N[*:1])[*:2]].[O=C([C@@H]1C[C@H](F)CN1[*:1])[*:2]].L.G.[am]}$PEPTIDE1,PEPTIDE1,1:R1-5:R3$$$V2.0; C-terminus assumed; bridges inferred)
145

----------
Reported pEC50 values for the following compounds.
target: human V2 receptor (Homo sapiens, UniProt P30518); construct: expressed in transfected cells; assay: Calcium flux assay (FLIPR) in CHO cells expressing human V2+Gqs5; type: cell-based; details: agonist mode, CHO cells with chimeric Gqs5, calcium flux FLIPR; read-out: hV2 EC50
Sequence (P30518 whole entry): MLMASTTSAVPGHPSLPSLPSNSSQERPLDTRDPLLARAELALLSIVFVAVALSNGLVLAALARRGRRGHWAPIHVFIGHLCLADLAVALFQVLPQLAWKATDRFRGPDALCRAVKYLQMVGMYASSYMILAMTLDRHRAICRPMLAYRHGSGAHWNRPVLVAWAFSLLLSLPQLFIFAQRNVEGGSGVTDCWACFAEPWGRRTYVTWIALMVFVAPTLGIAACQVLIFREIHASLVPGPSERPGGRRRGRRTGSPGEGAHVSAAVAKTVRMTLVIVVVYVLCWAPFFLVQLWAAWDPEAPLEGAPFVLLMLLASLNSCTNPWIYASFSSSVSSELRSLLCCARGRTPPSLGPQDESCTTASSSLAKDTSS
pEC50: −log10 of the molar value. Where a SMILES comes first, the peptide text is derived from it.
measurementType: pEC50

1. CC[C@H](C)[C@H](NC(=O)CN(C(=O)[C@@H]1CCS(=O)(=O)CCC(=O)N[C@@H](Cc2ccc(O)cc2)C(=O)N[C@@H]([C@@H](C)CC)C(=O)N[C@@H](CCC(N)=O)C(=O)N[C@@H](CC(N)=O)C(=O)N1)C1CC1)C(=O)NCC(N)=O [Example 31] (HELM PEPTIDE1{Y.I.Q.N.[O=C([C@H](CCS(=O)(=O)CCC(=O)[*:3])N[*:1])[*:2]].[O=C(CN(C1CC1)[*:1])[*:2]].I.G.[am]}$PEPTIDE1,PEPTIDE1,1:R1-5:R3$$$V2.0)
5.53
2. CC[C@H](C)[C@@H]1NC(=O)[C@H](Cc2ccc(O)cc2)NC(=O)CCS(=O)(=O)CC[C@@H](C(=O)N(CC(=O)N[C@H](C(=O)NCC(N)=O)C(C)C)C2CC2)NC(=O)[C@H](CC(N)=O)NC(=O)[C@H](CCC(N)=O)NC1=O [Example 29] (HELM PEPTIDE1{Y.I.Q.N.[O=C([C@H](CCS(=O)(=O)CCC(=O)[*:3])N[*:1])[*:2]].[O=C(CN(C1CC1)[*:1])[*:2]].V.G.[am]}$PEPTIDE1,PEPTIDE1,1:R1-5:R3$$$V2.0)
5.48
3. CC[C@H](C)[C@@H]1NC(=O)[C@H](Cc2ccc(O)cc2)NC(=O)CCS(=O)(=O)CC[C@@H](C(=O)N(CC(=O)NC(C)(C)C(=O)NCC(N)=O)C2CC2)NC(=O)[C@H](CC(N)=O)NC(=O)[C@H](CCC(N)=O)NC1=O [Example 30] (HELM PEPTIDE1{Y.I.Q.N.[O=C([C@H](CCS(=O)(=O)CCC(=O)[*:3])N[*:1])[*:2]].[O=C(CN(C1CC1)[*:1])[*:2]].[Aib].G.[am]}$PEPTIDE1,PEPTIDE1,1:R1-5:R3$$$V2.0)
5.20
